- ASSAY REMARKS: Cytotoxicity, CellTiter Glo
- Assay type: cell-based
- EXPERIMENTAL PARAMETERS: human, OPM2 cells, 5-day proliferation
ASSAY READOUT: IC50 at 5 day

COMPOUND	IC50 at 5 day
COc1cc2c(NC3CCN(C(C)C)CC3)nc(C3CCCCC3)nc2cc1OCCCN1CCCC1 [UNC0638, reference compound]	5.6 µM

Let us examine a further case.
input: Entry COc1cc2c(cc1OCCCN1CCCC1)N=C(N)C21CCC1 : reported IC50 at 5 day = ?
output: > 10 µM

----------
- ASSAY REMARKS: Cytotoxicity, CellTiter Glo
- Format: cell-based
- EXPERIMENTAL PARAMETERS: human, KMS12 cells, 5-day proliferation
ASSAY READOUT: IC50 at 5 day (µM)
Give bare numbers, in µM.

input: Entry COc1cc2c(NC3CCN(C(C)C)CC3)nc(C3CCCCC3)nc2cc1OCCCN1CCCC1 [UNC0638, reference compound] : reported IC50 at 5 day = ?
output: 4.4
